Consider the following compounds and their measured IC50 readings.
system: Plasmodium falciparum; assay: Antimalarial activity against ring stage of Plasmodium falciparum 3D7 infected in erythrocytes assessed as [3H]-hypoxanthine incorporation after 48 hrs by liquid scintillation counting analysis; type: functional, organism-based

Answered cases to consult:
Tell me reported IC50 for `CC(=O)OC(C)(C)/C=C/C(=O)[C@](C)(O)[C@H]1[C@H](O)C[C@@]2(C)[C@@H]3CC=C4[C@H](C[C@H](O[C@@H]5O[C@H](CO)[C@@H](O)[C@H](O)[C@H]5O)[C@H](O)C4(C)C)[C@]3(C)CC[C@]12C` , tested with Plasmodium falciparum.
8.3 µM

Tell me reported IC50 for `COc1cc(C(C)=O)ccc1O[C@@H]1O[C@H](COC(=O)/C=C/c2ccccc2)[C@@H](O)[C@H](O)[C@H]1O` , tested with Plasmodium falciparum.
> 25 µM

Continuing:
Tell me reported IC50 for `COc1cc(/C=C/C(=O)OC[C@H]2O[C@@H](Oc3ccc(C(C)=O)cc3OC)[C@H](O)[C@@H](O)[C@@H]2O)ccc1O` , tested with Plasmodium falciparum.
> 25 µM

Tell me reported IC50 for `CC(=O)OC(C)(C)CCC(=O)[C@](C)(O)[C@H]1[C@H](O)C[C@@]2(C)[C@@H]3CC=C4[C@H](C[C@H](O[C@@H]5O[C@H](CO)[C@@H](O)[C@H](O)[C@H]5O)[C@H](O)C4(C)C)[C@]3(C)CC[C@]12C` , tested with Plasmodium falciparum.
> 25 µM

Tell me reported IC50 for `COc1cc(C(=O)O)ccc1O[C@@H]1O[C@H](COC(=O)/C=C/c2ccccc2)[C@@H](O)[C@H](O)[C@H]1O` , tested with Plasmodium falciparum.
> 25 µM
